B1: TFE3 (parent)
chain: FPSDHLGDLGDPFHLGLEDILMEE

Variants of: B1
measurement.notes: protein stability index of a GFP-peptide fusion (GPS, HEK-293T) (PSI 1-6); higher = more stable;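 also: lentivirally expressed fusions sorted by FACS into six bins by GFP to DsRed ratio, PSI derived from sequencing read proportions per bin multiplied by bin number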
details: c terminus: a fixed tail appended
# reported protein stability index; entries follow
measured.metric: protein stability index

> print(dat)
                   sequence.content          measured.metric  result
 1  FPSDHLGDLGDPFHLGLEDWLMEE [I20W]  protein stability index     3.5
 2   FPSDGLGDLGDPFHLGLEDILMEE [H5G]  protein stability index    3.36
 3  FPSDHLGDLGDPFHLGLEDILMAE [E23A]  protein stability index    2.45
 4   FPSDHLKDLGDPFHLGLEDILMEE [G7K]  protein stability index    3.07
 5  FPSDHLGDLGEPFHLGLEDILMEE [D11E]  protein stability index    4.24
 6  FPSDHLGDLGDPDHLGLEDILMEE [F13D]  protein stability index    5.22
 7   FPADHLGDLGDPFHLGLEDILMEE [S3A]  protein stability index    2.85
 8   FPSDHLGDDGDPFHLGLEDILMEE [L9D]  protein stability index     4.5
 9   FPSTHLGDLGDPFHLGLEDILMEE [D4T]  protein stability index    2.35
10  FPSDHLGDLGDPFYLGLEDILMEE [H14Y]  protein stability index    3.32
11  FPSDHLGDLGDCFHLGLEDILMEE [P12C]  protein stability index    3.62
12  FPSDHLGDLGLPFHLGLEDILMEE [D11L]  protein stability index    2.89
13  FPSDHLGDLSDPFHLGLEDILMEE [G10S]  protein stability index    3.15
14  FPSDHLGDLGDPFHLGLEDILMSE [E23S]  protein stability index    2.81
15   FPSVHLGDLGDPFHLGLEDILMEE [D4V]  protein stability index    2.59
16  FPSDHLGDLGDPFHLGLEDITMEE [L21T]  protein stability index    3.93
17  FPSDHLGDLGDPFHCGLEDILMEE [L15C]  protein stability index    3.31
18  FPSDHLGDLGDPFHLGLEDILFEE [M22F]  protein stability index    3.14
19  FPSDHLGDLGDPFHLGLEDILAEE [M22A]  protein stability index    3.31
20   IPSDHLGDLGDPFHLGLEDILMEE [F1I]  protein stability index    4.61
21  FPSDHLGDLGSPFHLGLEDILMEE [D11S]  protein stability index    2.13
22   PPSDHLGDLGDPFHLGLEDILMEE [F1P]  protein stability index    5.13
